- EXPERIMENT_SUMMARY: General cytotoxicity on primary differentiated HepaRG cells (72 h)
- Assay type: cell-based
- CONDITIONS_USED: human, general toxicity, mean value from several measurements

| COMPOUND | CC50 at 72 h |
| --- | --- |
| FC(F)(F)c1cnc(N[C@H]2CCCNC2)nc1Oc1cccc2c1NCCC2 | > 2000 nM |
| CCN1CCCc2c(-c3nc(N[C@H]4CCC(C)(C)NC4)ncc3C(F)(F)F)c[nH]c2C1=O | > 2000 nM |
| O=C(NCc1ccccc1)c1cc(-c2nc(N[C@H]3CCCNC3)ncc2C(F)(F)F)c[nH]1 | 500 to 2000 nM |
| Cn1cc(-n2ccc3c(-c4nc(N[C@H]5CCCNC5)ncc4C(F)(F)F)c[nH]c3c2=O)ccc1=O | > 2000 nM |
| FC(F)(F)c1cnc(N[C@H]2CCCNC2)nc1-n1nnc2ccccc21 | 500 to 2000 nM |
| Cn1cc(-n2ccc3c(-c4nc(N[C@H]5CCCNC5)ncc4C(F)(F)F)c[nH]c3c2=O)cn1 | > 2000 nM |
| O=C(NC1CCC(O)CC1)c1cc(-c2nc(N[C@H]3CCCNC3)ncc2C(F)(F)F)c[nH]1 (stereo partly shown) | > 2000 nM |
| CCOC(=O)c1cc(-c2nc(N[C@H]3CCCNC3)ncc2C(F)(F)F)c[nH]1 | > 2000 nM |
| Nc1ccccc1Oc1nc(N[C@H]2CCCNC2)ncc1C(F)(F)F | 500 to 2000 nM |
| Cc1nnc2n1CCCc1c(-c3nc(N[C@H]4CCCNC4)ncc3C(F)(F)F)c[nH]c1-2 | > 2000 nM |
| CC1(C)CC[C@H](Nc2ncc(C(F)(F)F)c(-c3c[nH]c4c3CCCN(C3CCCC3)C4=O)n2)CN1 | > 2000 nM |
| FC(F)(F)c1cnc(N[C@H]2CCCNC2)nc1Oc1ccccc1 | > 2000 nM |
| CP(C)(=O)c1ccccc1Nc1nc(N[C@H]2CCCNC2)ncc1C(F)(F)F | > 2000 nM |
| Cn1cc(N2CCCc3c(-c4nc(N[C@H]5CCCNC5)ncc4C(F)(F)F)c[nH]c3C2=O)cn1 | > 2000 nM |
| Cn1nnnc1-c1cc(-c2nc(N[C@H]3CCCNC3)ncc2C(F)(F)F)c[nH]1 | 500 to 2000 nM |
| O=C(c1ccccc1)c1cc(-c2nc(N[C@H]3CCCNC3)ncc2C(F)(F)F)c[nH]1 | > 2000 nM |
| CN1CCCc2c(-c3nc(N[C@H]4CCC(C)(C)NC4)ncc3C(F)(F)F)c[nH]c2C1=O | > 2000 nM |
| O=C(NC1CC1)c1cc(-c2nc(N[C@H]3CCCNC3)ncc2C(F)(F)F)c[nH]1 | 500 to 2000 nM |
| CN(C(=O)c1cc(-c2nc(N[C@H]3CCCNC3)ncc2C(F)(F)F)c[nH]1)C1CC1 | 500 to 2000 nM |

---

// reported Papp at 20 h, 10 μmol for each item listed
- EXPERIMENT_SUMMARY: Passive membrane permeability through PAMPA artificial membrane, pH 7.4
- Format: in vitro ADME
- CONDITIONS_USED: pH 7.4, 10 μmol, 20 hours at room temperature, mean of multiple measurements, read-out: PAMPA passive permeability Pe
ASSAY_ENDPOINT: Papp at 20 h, 10 μmol

| COMPOUND | RESULT |
| --- | --- |
| Cn1nnnc1-c1cc(-c2nc(N[C@H]3CCCNC3)ncc2C(F)(F)F)c[nH]1 | < 1 ×10⁻⁶ cm/s |
| FC(F)(F)c1cnc(N[C@H]2CCCNC2)nc1-c1c[nH]c(-c2ccccn2)c1 | 1 to 5 ×10⁻⁶ cm/s |
| CN(C)C(=O)c1cc(-c2nc(N[C@H]3CCCNC3)ncc2C(F)(F)F)cn1C | 1 to 5 ×10⁻⁶ cm/s |
| CCN1CCCc2c(-c3nc(N[C@H]4CCC(C)(C)NC4)ncc3C(F)(F)F)c[nH]c2C1=O | 1 to 5 ×10⁻⁶ cm/s |
| CN1CCCc2c(-c3nc(N[C@H]4CCC(C)(C)NC4)ncc3C(F)(F)F)c[nH]c2C1=O | 1 to 5 ×10⁻⁶ cm/s |
| FC(F)(F)c1cnc(N[C@H]2CCCNC2)nc1-n1nnc2ccccc21 | 5 to 10 ×10⁻⁶ cm/s |
| O=c1c2[nH]cc(-c3nc(N[C@H]4CCCNC4)ncc3C(F)(F)F)c2ccn1Cc1ccccc1 | 1 to 5 ×10⁻⁶ cm/s |
| Cc1nc(-c2cc(-c3nc(N[C@H]4CCCNC4)ncc3C(F)(F)F)c[nH]2)no1 | 5 to 10 ×10⁻⁶ cm/s |
| CN1CCCc2c(-c3nc(N[C@H]4CCC5(CC5)NC4)ncc3C(F)(F)F)c[nH]c2C1=O | 5 to 10 ×10⁻⁶ cm/s |
| CC1(C)CC[C@H](Nc2ncc(C(F)(F)F)c(-c3c[nH]c4c3CCCN(C3CCC3)C4=O)n2)CN1 | 1 to 5 ×10⁻⁶ cm/s |
| Cn1nnc(-c2cc(-c3nc(N[C@H]4CCCNC4)ncc3C(F)(F)F)c[nH]2)n1 | < 1 ×10⁻⁶ cm/s |
| O=C1c2[nH]cc(-c3nc(NC4CCCNC4)ncc3C(F)(F)F)c2CCCN1C1CC1 (centres unmarked) | 1 to 5 ×10⁻⁶ cm/s |
| O=c1c2[nH]cc(-c3nc(N[C@H]4CCCNC4)ncc3C(F)(F)F)c2ccn1C1CCOCC1 | < 1 ×10⁻⁶ cm/s |
| CN1CC=Cc2c(-c3nc(N[C@H]4CCCNC4)ncc3C(F)(F)F)c[nH]c2C1=O | < 1 ×10⁻⁶ cm/s |
| CC1(C)CC[C@H](Nc2ncc(C(F)(F)F)c(-c3c[nH]c4c3CCCN(CC3CC3)C4=O)n2)CN1 | 5 to 10 ×10⁻⁶ cm/s |
| CN(C)C(=O)c1cc(-c2nc(N[C@H]3CCCNC3)ncc2C(F)(F)F)c[nH]1 | 1 to 5 ×10⁻⁶ cm/s |
| CC(C)N1CCCc2c(-c3nc(N[C@H]4CCC(C)(C)NC4)ncc3C(F)(F)F)c[nH]c2C1=O | 5 to 10 ×10⁻⁶ cm/s |
| O=C(NC1CC1)c1cc(-c2nc(N[C@H]3CCCNC3)ncc2C(F)(F)F)c[nH]1 | < 1 ×10⁻⁶ cm/s |
| FC(F)(F)c1cnc(N[C@H]2CCCNC2)nc1-c1c[nH]c(-c2ccccc2)c1 | < 1 ×10⁻⁶ cm/s |
| O=C1c2[nH]cc(-c3nc(N[C@H]4CCCNC4)ncc3C(F)(F)F)c2CCCN1c1ccccn1 | 1 to 5 ×10⁻⁶ cm/s |
